experiment: Human Caco-2 bidirectional permeability A to B and B to A; type: in vitro ADME; details: Caco-2, pH 7.4
Items are presented alongside their recorded efflux ratio at 2 h.

- SMI: "C[C@@H]1Cc2c(ccc3[nH]nc(F)c23)[C@@H](c2ncc(NC3CN(CCCF)C3)cc2F)N1CC(F)(F)F"
  efflux ratio at 2 h: 1.5
- SMI: "COc1cc(NC2CN(CCCF)C2)ccc1[C@@H]1c2ccc3[nH]ncc3c2C[C@@H](C)N1CC(F)F"
  efflux ratio at 2 h: 1.6
- SMI: "COc1cc(NC2CN(CCCF)C2)ccc1[C@@H]1c2ccc3[nH]ncc3c2C[C@@H](C)N1CC(F)(F)CO"
  efflux ratio at 2 h: 34
- SMI: "C[C@@H]1Cc2c(ccc3[nH]ncc23)[C@@H](c2ccc(NC3CN(CCCF)C3)c(F)n2)N1CC(F)F"
  efflux ratio at 2 h: 1.1

====

Items are presented alongside their recorded IC50.
target: recombinant human Estrogen Receptor alpha ligand binding domain (ER alpha-LBD (GST)) (Homo sapiens (Human)); experiment: ERα binding assay (LanthaScreen TR-FRET competition); conditions: TR-FRET, displacement of Fluormone ES2
Sequence (P03372 307-554): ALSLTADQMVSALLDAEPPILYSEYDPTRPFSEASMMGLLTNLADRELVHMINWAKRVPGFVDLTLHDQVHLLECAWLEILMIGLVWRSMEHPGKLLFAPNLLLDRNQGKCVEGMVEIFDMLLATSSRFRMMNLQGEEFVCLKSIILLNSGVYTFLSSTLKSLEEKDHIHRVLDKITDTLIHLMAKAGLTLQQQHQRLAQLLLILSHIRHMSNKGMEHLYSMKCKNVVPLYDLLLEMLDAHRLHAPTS

- SMI: "C[C@@H]1Cc2c(ccc3[nH]ncc23)[C@@H](c2ccc(N(C)C3CN(CCCF)C3)cn2)N1CC(F)(F)F"
  IC50 / nM: 1.9
- SMI: "C[C@@H]1Cc2c(ccc3[nH]ncc23)[C@@H](c2c(F)cc(NC3CN(CCCF)C3)cc2F)N1CC(F)F"
  IC50 / nM: 1.5
- SMI: "C[C@@H]1Cc2c(ccc3[nH]ncc23)[C@@H](c2ccc(NC3CN(CCCF)C3)c(F)n2)N1CC(F)F"
  IC50 / nM: 1.2
- SMI: "C[C@@H]1Cc2c(ccc3[nH]ncc23)[C@@H](c2ncc(NC3CN(CCCF)C3)cc2F)N1CC1(F)CC1"
  IC50 / nM: 29

====

Items are presented alongside their recorded pIC50.
molecular target: hERG potassium channel (Homo sapiens (Human)); test: hERG binding assay (automated patch clamp, CHO cells); format: cell-based; conditions: CHO cell line, Nanion Syncropatch 384PE
Sequence (Q12809 whole entry): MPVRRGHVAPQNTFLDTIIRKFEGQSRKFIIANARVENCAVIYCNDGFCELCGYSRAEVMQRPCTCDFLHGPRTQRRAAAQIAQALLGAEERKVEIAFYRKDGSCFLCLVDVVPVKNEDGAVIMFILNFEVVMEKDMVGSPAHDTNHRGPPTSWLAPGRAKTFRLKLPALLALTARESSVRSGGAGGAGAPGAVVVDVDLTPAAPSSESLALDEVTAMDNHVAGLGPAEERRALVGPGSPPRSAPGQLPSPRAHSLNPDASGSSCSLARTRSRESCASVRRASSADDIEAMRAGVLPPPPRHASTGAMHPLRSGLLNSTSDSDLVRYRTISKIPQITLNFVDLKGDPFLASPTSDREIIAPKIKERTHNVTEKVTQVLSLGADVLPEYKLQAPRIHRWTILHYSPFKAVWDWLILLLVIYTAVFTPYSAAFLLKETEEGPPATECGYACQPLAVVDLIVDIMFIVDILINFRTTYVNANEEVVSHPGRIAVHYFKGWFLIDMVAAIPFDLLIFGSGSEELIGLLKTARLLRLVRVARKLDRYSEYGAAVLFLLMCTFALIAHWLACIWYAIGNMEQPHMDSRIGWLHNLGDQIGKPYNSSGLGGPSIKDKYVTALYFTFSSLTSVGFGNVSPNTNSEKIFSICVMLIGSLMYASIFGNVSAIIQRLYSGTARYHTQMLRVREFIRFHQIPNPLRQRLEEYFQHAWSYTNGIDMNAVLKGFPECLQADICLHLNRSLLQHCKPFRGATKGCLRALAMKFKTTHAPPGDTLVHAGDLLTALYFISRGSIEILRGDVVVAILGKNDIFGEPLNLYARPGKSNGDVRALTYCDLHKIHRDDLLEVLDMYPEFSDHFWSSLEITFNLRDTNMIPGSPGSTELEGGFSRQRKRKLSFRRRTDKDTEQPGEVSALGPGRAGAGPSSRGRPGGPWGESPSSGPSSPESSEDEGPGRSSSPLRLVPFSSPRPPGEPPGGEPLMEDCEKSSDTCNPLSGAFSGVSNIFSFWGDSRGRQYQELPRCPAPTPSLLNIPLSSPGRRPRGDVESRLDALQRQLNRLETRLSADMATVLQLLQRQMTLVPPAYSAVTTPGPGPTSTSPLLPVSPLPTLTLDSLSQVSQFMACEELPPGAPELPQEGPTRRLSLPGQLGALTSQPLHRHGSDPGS
pIC50: −log10 of the molar value.
OBSERVABLE: pIC50

- SMI: "C[C@@H]1Cc2c(ccc3[nH]ncc23)[C@@H](c2ccc(NC3CN(CCCF)C3)nc2F)N1CC(F)(F)F"
  TEST_SYSTEM: "hERG potassium channel (Homo sapiens (Human))"
  READOUT_QUALIFIER: "="
  VALUE: 5.35
- SMI: "COc1cc(NC2CN(CCCF)C2)ccc1[C@@H]1c2ccc3[nH]ncc3c2C[C@@H](C)N1CC(F)F"
  TEST_SYSTEM: "hERG potassium channel (Homo sapiens (Human))"
  READOUT_QUALIFIER: "="
  VALUE: 5.28
- SMI: "C[C@@H]1Cc2c(ccc3[nH]ncc23)[C@@H](c2ccc(OC3CN(CCCF)C3)cn2)N1CC(F)(F)CO"
  TEST_SYSTEM: "hERG potassium channel (Homo sapiens (Human))"
  READOUT_QUALIFIER: "<"
  VALUE: 4.40
- SMI: "C[C@@H]1Cc2c(ccc3[nH]nc(F)c23)[C@@H](c2ncc(NC3CN(CCCF)C3)cc2F)N1CC(F)(F)F"
  TEST_SYSTEM: "hERG potassium channel (Homo sapiens (Human))"
  READOUT_QUALIFIER: "="
  VALUE: 4.85
- SMI: "C[C@@H]1Cc2c(ccc3[nH]ncc23)[C@@H](c2cnc(NC3CN(CCCF)C3)cn2)N1CC1(F)CC1"
  TEST_SYSTEM: "hERG potassium channel (Homo sapiens (Human))"
  READOUT_QUALIFIER: "<"
  VALUE: 4.40
- SMI: "COc1cc(NC2CN(CCCF)C2)ccc1[C@@H]1c2ccc3[nH]ncc3c2C[C@@H](C)N1CC1(F)CC1"
  TEST_SYSTEM: "hERG potassium channel (Homo sapiens (Human))"
  READOUT_QUALIFIER: "="
  VALUE: 5.04
- SMI: "COc1cc(N(C)C2CN(CCCF)C2)ccc1[C@@H]1c2ccc3[nH]ncc3c2C[C@@H](C)N1CC1(F)CC1"
  TEST_SYSTEM: "hERG potassium channel (Homo sapiens (Human))"
  READOUT_QUALIFIER: "="
  VALUE: 5.70

====

Items are presented alongside their recorded Human plasma protein binding (% free).
experiment: Human plasma protein binding (equilibrium dialysis); type: in vitro ADME; settings: dialysis 18 hours
OBSERVABLE: Human plasma protein binding (% free)

- MOLECULE: "C[C@@H]1Cc2c(ccc3[nH]ncc23)[C@@H](c2ncc(OC3CN(CCCF)C3)cc2F)N1CC(F)(F)CO [Example 59]"
  VALUE: 33
- MOLECULE: "C[C@@H]1Cc2c(ccc3[nH]ncc23)[C@@H](c2ccc(NC3CN(CCCF)C3)cn2)N1CC(C)(C)F [Example 63]"
  VALUE: 10
- MOLECULE: "C[C@@H]1Cc2c(ccc3[nH]nc(F)c23)[C@@H](c2cnc(NC3CN(CCCF)C3)cn2)N1CC(F)(F)F [Example 38]"
  VALUE: 13
- MOLECULE: "C[C@@H]1Cc2c(ccc3[nH]ncc23)[C@@H](c2ccc(NC3CN(CCCF)C3)nc2F)N1CC(F)(F)F [Example 40]"
  VALUE: 6.4

====

Items are presented alongside their recorded LogD pH 7.4.
assay: log D (shake flask, 1-octanol/aqueous buffer); type: physicochemical; conditions: pH 7.4, 1-octanol/aqueous buffer

- COMPOUND: "COC[C@](C)(F)CN1[C@H](c2ccc(NC3CN(CCCF)C3)cc2OC)c2ccc3[nH]ncc3c2C[C@H]1C (single isomer, unassigned)"
  LogD pH 7.4: 2.5
- COMPOUND: "CC(F)CN1[C@H](c2ccc(NC3CN(CCCF)C3)cn2)c2ccc3[nH]ncc3c2C[C@H]1C (single isomer, unassigned)"
  LogD pH 7.4: 2.3
- COMPOUND: "COc1cc(NC2CN(CCCF)C2)ccc1[C@@H]1c2ccc3[nH]ncc3c2C[C@@H](C)N1CC(C)F (single isomer, unassigned)"
  LogD pH 7.4: 2.4
- COMPOUND: "COC[C@](C)(F)CN1[C@H](c2ccc(OC3CN(CCCF)C3)cc2OC)c2ccc3[nH]ncc3c2C[C@H]1C (single isomer, unassigned)"
  LogD pH 7.4: 4

====

Items are presented alongside their recorded MCF7 Western % ER deg vs Fv.
target: Estrogen Receptor (ERα) in MCF-7 cells (Homo sapiens (Human), UniProt P03372); experiment: Western blotting assay, ER down-regulation in MCF-7; assay type: cell-based; conditions: 100 nM compound, 48 h, normalised to 100 nM fulvestrant
Sequence (P03372 whole entry): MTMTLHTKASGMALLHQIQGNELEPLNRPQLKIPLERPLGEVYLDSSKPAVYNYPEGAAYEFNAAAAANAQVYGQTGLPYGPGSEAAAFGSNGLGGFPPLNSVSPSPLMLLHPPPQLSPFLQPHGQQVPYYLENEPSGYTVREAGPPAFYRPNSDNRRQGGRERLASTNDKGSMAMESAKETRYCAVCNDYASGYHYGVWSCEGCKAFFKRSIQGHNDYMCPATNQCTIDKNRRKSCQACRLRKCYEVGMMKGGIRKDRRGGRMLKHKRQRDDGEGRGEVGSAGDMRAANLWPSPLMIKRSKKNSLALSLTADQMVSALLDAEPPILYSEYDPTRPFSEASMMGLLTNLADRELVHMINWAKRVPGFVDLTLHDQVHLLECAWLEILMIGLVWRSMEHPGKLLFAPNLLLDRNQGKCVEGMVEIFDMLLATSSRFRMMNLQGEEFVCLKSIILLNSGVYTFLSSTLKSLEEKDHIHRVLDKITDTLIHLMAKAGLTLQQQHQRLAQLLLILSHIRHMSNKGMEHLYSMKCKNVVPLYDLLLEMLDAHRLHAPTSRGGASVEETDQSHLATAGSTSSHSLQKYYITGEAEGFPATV

- SMI: "C[C@@H]1Cc2c(ccc3[nH]nc(F)c23)[C@@H](c2ccc(NC3CN(CCCF)C3)cn2)N1CC(F)(F)F"
  MCF7 Western % ER deg vs Fv: "89%"
- SMI: "C[C@@H]1Cc2c(ccc3[nH]ncc23)[C@@H](c2ccc(NC3CN(CCCF)C3)cn2)N1CC(F)(F)F"
  MCF7 Western % ER deg vs Fv: "92%"
- SMI: "COCC(F)(F)CN1[C@H](c2ccc(NC3CN(CCCF)C3)cc2OC)c2ccc3[nH]ncc3c2C[C@H]1C"
  MCF7 Western % ER deg vs Fv: "91%"
- SMI: "C[C@@H]1Cc2c(ccc3[nH]ncc23)[C@@H](c2ccc(NC3CN(CCCF)C3)cn2)N1CC1(F)CC1"
  MCF7 Western % ER deg vs Fv: "90%"
- SMI: "COc1cc(NC2CN(CCCF)C2)ncc1[C@@H]1c2ccc3[nH]ncc3c2C[C@@H](C)N1CC1(F)CC1"
  MCF7 Western % ER deg vs Fv: "−13%"
- SMI: "COc1cc(NC2CN(CCCF)C2)ccc1[C@@H]1c2ccc3[nH]ncc3c2C[C@@H](C)N1CC1(F)CC1"
  MCF7 Western % ER deg vs Fv: "89%"
- SMI: "C[C@@H]1Cc2c(ccc3[nH]nc(F)c23)[C@@H](c2ncc(NC3CN(CCCF)C3)cc2F)N1CC(F)(F)F"
  MCF7 Western % ER deg vs Fv: "98%"

====

molecular target: Estrogen Receptor (ERα) in MCF-7 cells (Homo sapiens (Human)); assay: Western blotting assay, ER down-regulation in MCF-7; type: cell-based; settings: 100 nM compound, 48 h, normalised to 100 nM fulvestrant
Items are presented alongside their recorded MCF7 Western % ER deg vs Fv.

- SMI: "C[C@@H]1Cc2c(ccc3[nH]ncc23)[C@@H](c2ncc(NC3CN(CCCF)C3)cc2F)N1CC(F)(F)F"
  MCF7 Western % ER deg vs Fv / %: 96
- SMI: "COc1cc(NC2CN(CCCF)C2)c(F)cc1[C@@H]1c2ccc3[nH]ncc3c2C[C@@H](C)N1CC1(F)CC1"
  MCF7 Western % ER deg vs Fv / %: 81
- SMI: "CC(C)CN1[C@H](c2ccc(NC3CN(CCCF)C3)cn2)c2ccc3[nH]ncc3c2C[C@H]1C"
  MCF7 Western % ER deg vs Fv / %: 95
- SMI: "C[C@@H]1Cc2c(ccc3[nH]ncc23)[C@@H](c2ccc(OC3CN(CCCF)C3)cn2)N1CC(F)F"
  MCF7 Western % ER deg vs Fv / %: 97
- SMI: "C[C@@H]1Cc2c(ccc3[nH]ncc23)[C@@H](c2ncc(OC3CN(CCCF)C3)cc2F)N1CC(F)(F)CO"
  MCF7 Western % ER deg vs Fv / %: 104
- SMI: "C[C@@H]1Cc2c(ccc3[nH]ncc23)[C@@H](c2c(F)cc(NC3CN(CCCF)C3)cc2F)N1CC(F)(F)CO"
  MCF7 Western % ER deg vs Fv / %: 99
- SMI: "C[C@@H]1Cc2c(ccc3[nH]ncc23)[C@@H](c2ncc(NC3CN(CCCF)C3)cc2F)N1CC1(F)CC1"
  MCF7 Western % ER deg vs Fv / %: 103
